Source of measurements: ChEMBL document CHEMBL1153522

experiment: Systemic clearance in Beagle dog at 1 mg/kg, iv administered as single dose; type: ADME, organism-based, Canis lupus familiaris; design: dose 1 mg/kg, route intravenous; settings: in vivo
attribute measured: clearance (mL/min/kg)

INSERT INTO results (compound, reading_unit, test_value) VALUES
  ('CCN(CC)C(=O)c1ccc(C2=CC3(CCNCC3)Oc3ccccc32)c(O)c1 [ADL-5747 FREE BASE]', 'mL/min/kg', 6.33);

###

assay: AUC (0 to infinity) in Beagle dog at 1 mg/kg, iv administered as single dose; format: ADME, organism-based, Canis lupus familiaris; design: time infinity, dose 1 mg/kg, route intravenous; conditions: plasma
attribute measured: AUC(0-inf) (ng·h/mL)

INSERT INTO assay_data (compound, attribute_measured, test_value) VALUES
  ('CCN(CC)C(=O)c1ccc(C2=CC3(CCNCC3)Oc3ccccc32)c(O)c1 [ADL-5747 FREE BASE]', 'AUC(0-inf)', 2640);
